Origin of values: patent US9376694B2

Item-by-item account of Production amount of L-tert-leucine
target: branched-chain transaminase (Escherichia coli, UniProt P0AB80); construct: made in house; host or cells: E. coli BL21(DE3); experiment: Substrate specificity of branched-chain transaminase for amino acids with trimethylpyruvate, crude extract; type: biochemical, E. coli; conditions: 20 mM trimethylpyruvate, 20 mM L-amino acid, pH 7.0, 37° C., 2 hours
Sequence (P0AB80 whole entry): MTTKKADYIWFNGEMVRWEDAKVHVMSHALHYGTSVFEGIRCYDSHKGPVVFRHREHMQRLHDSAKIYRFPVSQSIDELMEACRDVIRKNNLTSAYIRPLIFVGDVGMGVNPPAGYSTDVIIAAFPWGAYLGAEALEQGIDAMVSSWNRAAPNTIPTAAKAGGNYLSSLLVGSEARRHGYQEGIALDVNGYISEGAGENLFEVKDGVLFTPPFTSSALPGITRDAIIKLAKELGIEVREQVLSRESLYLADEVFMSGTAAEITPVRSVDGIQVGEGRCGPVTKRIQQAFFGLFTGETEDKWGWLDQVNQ
Respond with the bare value in mM.

Example entries and their recorded answers appear below.
C[C@H](N)C(=O)O | 0.8
N[C@@H](CCC(=O)O)C(=O)O [L-Glutamate] | 6.4
CC[C@H](N)C(=O)O | 7.2

Query string: Tell us which Production amount of L-tert-leucine value is on record for CC(C)[C@H](N)C(=O)O
Result string: 7.8

Query string: Tell us which Production amount of L-tert-leucine value is on record for CC[C@H](C)[C@H](N)C(=O)O
Result string: 9.2

* * *

Item-by-item account of Concentration of acetophenone, OawTA
test system: ω-transaminase derived from Ochrobactrum anthropi; assay: Substrate specificity of purified ω-transaminase for keto acids, OawTA; assay type: biochemical; details: 20 mM keto acid, 20 mM (S)-α-methylbenzylamine, pH 7.0, 37° C., 6 hours

Query string: Tell us which Concentration of acetophenone, OawTA value is on record for CCC(C)C(=O)C(=O)O (stereo not drawn)
Result string: 0.00 mM

Query string: Tell us which Concentration of acetophenone, OawTA value is on record for CCC(=O)C(=O)O [2-Oxobutyrate]
Result string: 5.05 mM

* * *

tested on: ω-transaminase derived from Paracoccus denitrificans (PdwTA); test: Substrate specificity of purified ω-transaminase for keto acids in initial stage of reaction, PdwTA; format: biochemical; design: unit not given here; settings: purified enzyme (1 U/mL); 20 mM keto acid, 20 mM (S)-α-methylbenzylamine, pH 7.0, 37° C., 10 minutes
Observation type: amount of produced acetophenone, PdwTA
Output spec: single numeric token, no unit.

Query string: Tell us which amount of produced acetophenone, PdwTA value is on record for CCC(=O)C(=O)O [2-Oxobutyrate]
Result string: 0.821

Query string: Tell us which amount of produced acetophenone, PdwTA value is on record for CCCC(=O)C(=O)O
Result string: 1.332

Query string: Tell us which amount of produced acetophenone, PdwTA value is on record for CC(C)CC(=O)C(=O)O
Result string: 0.175

Query string: Tell us which amount of produced acetophenone, PdwTA value is on record for CCCCC(=O)C(=O)O
Result string: 0.713

Query string: Tell us which amount of produced acetophenone, PdwTA value is on record for O=C(O)C(=O)CO [β-Hydroxypyruvate]
Result string: 0.066

Query string: Tell us which amount of produced acetophenone, PdwTA value is on record for O=C(O)C(=O)CF [Fluoropyruvate]
Result string: 0.339

Query string: Tell us which amount of produced acetophenone, PdwTA value is on record for O=CC(=O)O [Gyloxylate]
Result string: 1.076

Query string: Tell us which amount of produced acetophenone, PdwTA value is on record for O=C(O)C(=O)CS [Mercaptopyruvate]
Result string: 0.008

* * *

Item-by-item account of Concentration of acetophenone, PdwTA
test system: ω-transaminase derived from Paracoccus denitrificans (PdwTA); test: Substrate specificity of purified ω-transaminase for keto acids, PdwTA; assay type: biochemical; conditions: purified enzyme (6 U/mL); 20 mM keto acid, 20 mM (S)-α-methylbenzylamine, pH 7.0, 37° C., 6 hours
Respond with the bare value in mM.

CCCCC(=O)C(=O)O | 5.22
CCC(C)C(=O)C(=O)O (stereo not drawn) | 0.00
CCC(=O)C(=O)O [2-Oxobutyrate] | 5.03

Query string: Tell us which Concentration of acetophenone, PdwTA value is on record for CC(C)C(=O)C(=O)O [3-Methyl-2-oxobutyrate]
Result string: 0.00

Query string: Tell us which Concentration of acetophenone, PdwTA value is on record for CC(C)CC(=O)C(=O)O
Result string: 4.99

Query string: Tell us which Concentration of acetophenone, PdwTA value is on record for CCCC(=O)C(=O)O
Result string: 5.24
